assay.text: Toxicity assay (XTT) on the cell lines used to measure virus infectivity
Assay type: cell-based
recorded.conditions: human
In this section, each of the compounds is paired with its reported IC50 at 2 days.
Please give a number only; it is taken to be in µM.

- N=C(N)c1ccc2[nH]c(Cc3nc4cc(C5=NCCN5)ccc4[nH]3)nc2c1 [E]: 65

Now look at this one.
Specify IC50 at 2 days for CC(C)NC(=N)c1ccc2nc(C=Cc3nc4ccc(C(=N)NC(C)C)cc4[nH]3)[nH]c2c1 [Compound B] and stop. 473

----------
Test system: HIV-1
assay.text: Standard reinfection assay of antiviral activity
Type: cell-based
recorded.conditions: Human immunodeficiency virus 1
pIC50: −log10 of the molar value.
value.kind: pIC50

Specify pIC50 for CC(C)NC(=N)c1ccc2nc(C=Cc3nc4ccc(C(=N)NC(C)C)cc4[nH]3)[nH]c2c1 and stop. 4.52 to 5.00

----------
In this section, each of the molecules is paired with its reported pIC50.
tested.on: HIV-1 integrase (Human immunodeficiency virus type 1 group M subtype B)
Construct: using the integrase coding domain from the HXB2 clone of HIV-1 DNA; made in house; host or cells: E. coli
assay.text: Integrase inhibition assay (cleavage and strand transfer of 32P-labelled HIV-1 U5/U3 oligonucleotide substrate)
Type: biochemical
recorded.conditions: Integrase Strand Transfer IC50, joining part of the integrase reaction
Convention used: pIC50 is expressed as -log10 of the molar concentration.

Previously resolved entries follow.
* N=C(N)c1ccc2nc(C=Cc3nc4ccc(C(=N)N)cc4[nH]3)[nH]c2c1 [Compound A] | 4.94
* CC(C)NC(=N)c1ccc2nc(C=Cc3nc4ccc(C(=N)NC(C)C)cc4[nH]3)[nH]c2c1 [Compound B] | 4.72

Now look at this one.
Specify pIC50 for N=C(N)c1ccc2[nH]c(Cc3nc4cc(C5=NCCN5)ccc4[nH]3)nc2c1 [E] and stop. 3.91
